Value source: ChEMBL document CHEMBL2203031

# testedTarget: NAD-dependent protein deacetylase sirtuin-3, mitochondrial (Homo sapiens)
# assayProcedure: Inhibition of recombinant SIRT3 using ZMAL substrate at 50 uM after 4 hrs by homogeneous fluorescence assay
property: inhibition

Below: 8 molecules and their reported inhibition.
1) O=C1NC(=S)NC(=O)C1=Cc1ccc(-c2cccc(Cl)c2Cl)o1: 30%
2) CN1C(=O)/C(=C/c2ccc(OCc3ccccc3)cc2)C(=O)NC1=S: 22%
3) CN1C(=O)/C(=C/c2c[nH]c3ccccc23)C(=O)NC1=S: 17%
4) CC(NC(=O)c1ccccc1/N=C/c1c(O)ccc2ccccc12)c1ccccc1 (stereo not given) [SIRTINOL]: 24%
5) C=CCN1C(=O)/C(=C/c2ccc(OCc3ccccc3)cc2)C(=O)NC1=S: 13%
6) CC(C)c1ccc(C=C2C(=O)NC(=S)NC2=O)cc1: 13%
7) CCN1C(=O)/C(=C/c2ccc(OCc3ccccc3)cc2)C(=O)NC1=S: 25%
8) C=CCN1C(=O)/C(=C/c2ccc(-c3cccc(Cl)c3Cl)o2)C(=O)NC1=S: 41%

# evaluate next
Given `O=C1NC(=S)NC(=O)C1=Cc1c[nH]c2ccccc12` , state its recorded inhibition.
14%
